The measured values listed here are drawn from patent US8076300B2.

molecular target: FGF2 (Homo sapiens); test: Solid phase binding assay, FGF2 binding to immobilized synthetic PTX3 peptides; set-up: made in house; host or cells: E. coli; settings: peptides 200 μg/well, FGF2 80 nM
Sequence (P09038 134-288): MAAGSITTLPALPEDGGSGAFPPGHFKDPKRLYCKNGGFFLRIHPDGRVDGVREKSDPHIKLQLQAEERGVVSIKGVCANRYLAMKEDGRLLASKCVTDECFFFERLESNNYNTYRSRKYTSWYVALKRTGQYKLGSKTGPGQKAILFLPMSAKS
Ends that are not written are not given here.
measuredAttribute: binding of free FGF2 to immobilized peptide or PTX3

RGELQRLREELGRLAESLARPCAPGAPAE [PTX3(82-110)]: binds
DNEIDNGLHPTEDPTPCDCGQEHSEWDKLF [PTX3(31-60)]: not
DKLFIMLENSQMRERMLLQATDDVLRGEL [PTX3(57-85)]: not
RGELQRLREELGRLAESLAR [PTX3(82-101)]: without interacting

Recorded result, RGELQRLREELGRLA [PTX3(82-96)] , binding of free FGF2 to immobilized peptide or PTX3: without interacting

Recorded result, ESLARPCAPGAPAE [PTX3(97-110)] , binding of free FGF2 to immobilized peptide or PTX3: binds
